- method: Solubility test in various carriers (Example 1)
- Format: physicochemical
- assay conditions: aqueous with cosolvent or surfactant or cyclodextrin, thermodynamic from solid; carrier: PEG400/EtOH/0.9% NaCl (40/10/50); read-out: Solubility after 2 h

compound	solubility at 2 h / mg/mL
Cc1c(N(C(=O)c2cc(-c3cc(Cl)ccc3C(=O)N3Cc4ccccc4C[C@H]3CN3CCOCC3)n(C)c2C)c2ccc(O)cc2)cc(C#N)n1C [Compound A, H2SO4]	10.3

----------
- method: Solubility test in various carriers (Example 1)
- Format: physicochemical
- assay conditions: aqueous with cosolvent or surfactant or cyclodextrin, thermodynamic from solid; carrier: PEG400/EtOH/0.9% NaCl (40/10/50); read-out: Solubility after 24 h
quantity name: solubility at 24 h (mg/mL)

compound	quantity name	unit string	assay value
Cc1c(N(C(=O)c2cc(-c3cc(Cl)ccc3C(=O)N3Cc4ccccc4C[C@H]3CN3CCOCC3)n(C)c2C)c2ccc(O)cc2)cc(C#N)n1C [Compound A, H2SO4]	solubility at 24 h	mg/mL	10.8
